bioavailability values for the compounds below.
- assay text: Bioavailability in C57 mouse at 1 mg/kg,iv administration
- Format: ADME, organism-based
- measurement parameters: in vivo
Quick reminder: number only, in %, skip the unit.

[[record]]
smiles_entry = "N#Cc1ccc2ccc(=O)n(CCN3CCC(NCc4ccc5c(c4)NC(=O)CS5)CC3)c2c1"
readout_type = "bioavailability"
value_reported = 18


# context switch: different compound, same bioavailability
Reported bioavailability for O=c1ccc2ncc(=O)n3c2n1C[C@H]3CN1CCC(NCc2cc3c(cn2)OCCC3)CC1 was 24

----------
- assay text: Half life in C57 mouse at 1 mg/kg,iv administration
- Type: ADME, organism-based
- measurement parameters: in vivo
readout type: half-life (min)
Quick reminder: number only, in min, skip the unit.

Reported half-life for O=c1ccc2ncc(=O)n3c2n1C[C@H]3CN1CCC(NCc2cc3c(cn2)OCCC3)CC1 was 102

Reported half-life for N#Cc1ccc2ccc(=O)n(CCN3CCC(NCc4ccc5c(c4)NC(=O)CS5)CC3)c2c1 was 150
